Measured inhibition by item
# PROTOCOL: ICB984 medulloblastoma cell growth inhibition, synergistic combos for chromothripsis tumors, cisplatin or BGB combos (AID 1671451);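 note: cells exposed for 96 hours before readout; 0% = vehicle DMSO and 100% = killing by high DMSO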
# CONDITIONS: ICB984 medulloblastoma cells, drug combinations, cisplatin combo, at 5 µM, stronger effect = higher value
Write the value in % as a bare number.

The examples below pair each entry with its known result.
[[record]]
compound = "CCC1(c2ccccc2)C(=O)NC(=O)NC1=O"
observed_result = -13.3

[[record]]
compound = "O=P(O)(NCCCl)NCCCl"
observed_result = -10.7

[[record]]
compound = "CN(C)NC(=O)CCC(=O)O"
observed_result = -3.89

[[record]]
compound = "Cc1c2ccncc2c(C)c2c1[nH]c1ccccc12"
observed_result = 2.54

[[record]]
compound = "O=c1[nH]c(=O)n(C2OC(CO)C(O)C2O)cc1F (stereo not given)"
observed_result = -10.9

[[record]]
compound = "Cn1c(COP(=O)(NCCBr)NCCBr)cnc1[N+](=O)[O-]"
observed_result = -33.7

[[record]]
compound = "O=C(O)CCCc1ccc(N(CCCl)CCCl)cc1"
observed_result = -18.5

[[record]]
compound = "COc1cc(C2c3cc4c(cc3C(O)C3COC(=O)C23)OCO4)cc(OC)c1OC (stereo not given)"
observed_result = 19.8

[[record]]
compound = "O=C1CCC[C@@H]2[C@H]3CCCN4CCC[C@@H](CN12)[C@@H]34"
observed_result = -10


Next, consider the following compound.
What does the record list as inhibition for NC(Cc1ccc(N(CCCl)CCCl)cc1)C(=O)O (stereo not given) ? -29.7

---

# PROTOCOL: HepG2 cytotoxicity, primary screen, cytotoxicity control for P. falciparum antimalarial project, cell-based, ATP luminescence (AID 2303);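 note: 0% = DMSO wells and 100% = digitonin-killed cells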
# CONDITIONS: HepG2 viability, 24-48 h, at 10 µM, stronger effect = higher value
OUTCOME_MEASURE: inhibition (%)
Write the value in % as a bare number.

The examples below pair each entry with its known result.
[[record]]
compound = "O=C(NC1CCC(CN2CCC(c3c[nH]c4ccccc34)CC2)CC1)c1ccc(-c2ccccc2[N+](=O)[O-])o1 (stereo not given)"
unit_annotation = "%"
observed_result = 24

[[record]]
compound = "COc1cccc(C(=O)C2CC2CN2CC=C(c3c[nH]c4ccc(OC)nc34)CC2)c1 (stereo not given)"
unit_annotation = "%"
observed_result = 8


What does the record list as inhibition for CC(Cc1ccc(NC(=O)CCCc2ccccc2)cc1)NCCc1cccc(Cl)c1 (stereo not given) ? 12

What do you have for `CCCCc1ccc2[nH]cc(C3=CCN(C)CC3)c2c1Br` ? 37

What do you have for CC(C)(C)c1ccc(Cn2nc(C(=O)N3CCN(C(=O)C4CCCO4)CC3)c3ccccc32)cc1 (stereo not given) ? -2

---

# PROTOCOL: sensitizers of A549 cells to miR-34 induction, primary screen, imaging, A549 dox-inducible miR-34, nuclei and caspase counts (AID 1347080)
# CONDITIONS: A549 miR-34 inducible, Hoechst nuclei count, 48 h; measured here: relative caspase fold change +Dox/-Dox
Outcome: 1 for fold change of at least 1; 0 for anything lower.

[[record]]
compound = "COC(=O)[C@@]1(O)CC2OC1(C)n1c3ccccc3c3c4c(c5c6ccccc6n2c5c31)C(=O)NC4 (stereo not given in full)"
label_value = 1

[[record]]
compound = "Cc1sc2c(c1C)C(c1ccc(Cl)cc1)=NC(CC(=O)OC(C)(C)C)c1nnc(C)n1-2 (stereo not given)"
label_value = 0

[[record]]
compound = "C=C(C)[C@@H]1C2C(=O)O[C@H]1[C@H]1OC(=O)[C@@]34OC3C[C@]2(O)[C@@]14C (stereo not given in full)"
label_value = 0


Is it the case that `C[N+]1=Cc2cc3c(cc2CC1)OCO3` has fold change reaching or exceeding 1? 1
